biological target: human GCGR (full-length glucagon receptor of 477 amino acids) (human, UniProt P47871 26-477); assay: cell-based or functional assay
Sequence (P47871 26-477 limits assumed): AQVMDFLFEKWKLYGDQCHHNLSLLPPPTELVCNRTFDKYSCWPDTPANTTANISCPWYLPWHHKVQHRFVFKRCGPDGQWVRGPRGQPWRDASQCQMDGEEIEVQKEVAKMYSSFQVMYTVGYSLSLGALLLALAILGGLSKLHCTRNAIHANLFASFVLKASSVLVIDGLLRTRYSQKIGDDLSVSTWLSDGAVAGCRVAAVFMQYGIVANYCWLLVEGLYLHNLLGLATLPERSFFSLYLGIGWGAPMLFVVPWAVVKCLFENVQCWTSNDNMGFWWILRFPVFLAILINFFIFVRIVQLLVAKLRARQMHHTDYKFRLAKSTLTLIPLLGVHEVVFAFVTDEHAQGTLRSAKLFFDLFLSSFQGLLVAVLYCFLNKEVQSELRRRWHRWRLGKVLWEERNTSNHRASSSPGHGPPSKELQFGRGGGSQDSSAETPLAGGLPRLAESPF
reported_metric: Imax (%)
Respond with the bare value in %.

Imax reading for hu1803-9 (antibody, human IgG4 S228P, kappa, F234A L235A, V domains shown, IgG4-AA / kappa humanized antibody; also called hu1803_VH.1 + hu1803_VL.1B; GCGR monoclonal antibody) VH: EVQLVQSGAEVKKPGASVKVSCKASGYTFTDYWIEWVRQAPGQGLEWMGEILPGSTYTNYNEKFKGRVTMTRDTSTSTVYMELSSLRSEDTAVYYCARGLSTLMAVDYFDYWGQGTTVTVSS VL: DIQMTQSPSSLSASVGDRVTITCRASQDISNYLNWYQQKPGKAVKLLIYYSSTLHSGVPSRFSGSGSGTDYTLTISSLQPEDFATYYCQQTNIFPWTFGGGTKVEIKR : 100

The reported Imax of the binder hu1810-6 (antibody, human IgG4 S228P, kappa, F234A L235A, V domains shown) VH: QVQLVQSGAEVKKPGSSVKVSCKASGGTFSNYAISWVRQAPGQGLEWMGEIYPTSGNTYYNEKFKGRVTITADRSTSTMYMELSSLRSEDTAVYYCASGVITTVVSTDYFDYWGQGTLVTVSS VL: DIQMTQSPSSLSASVGDRVTITCRASLDISNYLNWYQQKPGKAVKLLIYYTSTLHSGVSSRFSGSGSGTDYTLTISSLQPEDFATYYCQQGNMVPYTFGGGTKVEIKR was 100

Memo: hu1803-5 (antibody, human IgG4 S228P, kappa, F234A L235A, V domains shown) VH: EVQLVQSGAEVKKPGASVKVSCKASGYTFTDYWIEWVRQAPGQGLEWMGEILPGSTYTNYNEKFKGRVTMTRDTSTSTVYMELSSLRSEDTAVYYCARGLSTLMAVDYFDYWGQGTTVTVSS VL: DIQMTQSPSSLSASVGDRVTITCRASQDISNYLNWYQQKPGGAVKLLIYYSSTLHSGVPSRFSGSGSGTDYTLTISSLQPEDFATYFCQQTNIFPWTFGGGTKVEIKR , reported Imax: 100

Reported Imax ( hu1803-12 (antibody, human IgG4 S228P, kappa, F234A L235A, V domains shown) VH: EVQLVQSGAEVKKPGASVKVSCKASGYTFTDYWIEWVKQAPGQGLEWIGEILPGSTYTNYNEKFKGRATFTADPSTSTAYMELSSLRSEDTAVYYCSRGLSTLMAVDYFDYWGQGTTVTVSS VL: DIQMTQSPSSLSASVGDRVTITCRASQDISNYLNWYQQKPGKAVKLLIYYSSTLHSGVPSRFSGSGSGTDYTLTISSLQPEDFATYYCQQTNIFPWTFGGGTKVEIKR ) = 100

Lab note: hu1803-10 (antibody, human IgG4 S228P, kappa, F234A L235A, V domains shown) VH: EVQLVQSGAEVKKPGASVKVSCKASGYTFTDYWIEWVRQAPGQGLEWMGEILPGSTYTNYNEKFKGRVTFTADTSTSTAYMELSSLRSEDTAVYYCARGLSTLMAVDYFDYWGQGTTVTVSS VL: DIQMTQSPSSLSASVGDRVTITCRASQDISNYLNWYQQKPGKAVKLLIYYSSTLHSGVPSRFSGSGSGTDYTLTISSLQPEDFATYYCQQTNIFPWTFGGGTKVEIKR gave Imax of 100
